Where do the numbers come from? From ChEMBL document CHEMBL2163268.

Molecular target: Phosphatidylinositol 4,5-bisphosphate 3-kinase catalytic subunit alpha isoform (Homo sapiens)
Sequence (P42336 whole entry, canonical isoform): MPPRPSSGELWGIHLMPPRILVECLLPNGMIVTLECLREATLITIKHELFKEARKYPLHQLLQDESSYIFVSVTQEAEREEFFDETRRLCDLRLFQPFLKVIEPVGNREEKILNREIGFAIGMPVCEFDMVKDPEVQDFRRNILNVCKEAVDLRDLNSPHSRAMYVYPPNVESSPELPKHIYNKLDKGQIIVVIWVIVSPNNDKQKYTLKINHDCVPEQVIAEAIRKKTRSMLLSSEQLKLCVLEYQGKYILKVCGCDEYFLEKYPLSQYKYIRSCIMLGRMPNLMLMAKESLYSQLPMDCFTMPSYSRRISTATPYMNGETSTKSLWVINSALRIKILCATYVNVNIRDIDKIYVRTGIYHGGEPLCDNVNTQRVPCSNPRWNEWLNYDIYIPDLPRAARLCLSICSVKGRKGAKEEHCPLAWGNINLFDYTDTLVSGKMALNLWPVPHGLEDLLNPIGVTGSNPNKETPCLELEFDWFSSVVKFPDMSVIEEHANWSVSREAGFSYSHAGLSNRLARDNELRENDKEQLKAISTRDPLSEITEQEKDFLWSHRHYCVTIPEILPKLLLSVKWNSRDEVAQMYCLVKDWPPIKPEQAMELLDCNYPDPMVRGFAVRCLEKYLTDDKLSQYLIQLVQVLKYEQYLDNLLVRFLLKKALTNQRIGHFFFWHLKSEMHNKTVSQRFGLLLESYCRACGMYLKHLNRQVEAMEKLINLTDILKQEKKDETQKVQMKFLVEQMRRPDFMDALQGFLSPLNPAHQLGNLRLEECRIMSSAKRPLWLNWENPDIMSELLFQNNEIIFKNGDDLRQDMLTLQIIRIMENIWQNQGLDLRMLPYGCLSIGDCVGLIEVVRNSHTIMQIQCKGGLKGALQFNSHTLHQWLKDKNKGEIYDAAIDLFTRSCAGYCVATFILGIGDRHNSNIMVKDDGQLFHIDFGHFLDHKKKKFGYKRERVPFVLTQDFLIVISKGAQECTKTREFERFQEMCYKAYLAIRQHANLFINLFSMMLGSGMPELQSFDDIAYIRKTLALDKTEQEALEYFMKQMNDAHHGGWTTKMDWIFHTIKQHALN
Assay: biochemical
ATTRIBUTE MEASURED: Ki (nM)

COc1ccc(Nc2ncc(CN3CCCN(S(C)(=O)=O)CC3)cc2-c2nc(C)nc(N)n2)cn1 33

a = COc1ccc(Nc2ncc(N3CCN(C)CC3)cc2-c2nc(C)nc(N)n2)cn1
b = COc1ccc(Nc2ncccc2-c2ncnc3nc[nH]c23)cn1
Hi there, can you help? I need to know whether a or b has lower measured Ki. Respond with the label that goes with your answer.
a

A = Cc1nc(-c2cccnc2Nc2cccc3n[nH]cc23)c2c[nH]nc2n1
B = COc1ccc(Nc2ncc(CN3CCS(=O)(=O)CC3)cc2-c2nc(C)nc(N)n2)cn1
Could you please tell me which of these two has the higher Ki: A or B ? Respond with the label that goes with your answer.
A
(A: 1700 nM, B: 73 nM)

###

Biological target: Phosphatidylinositol 4,5-bisphosphate 3-kinase catalytic subunit gamma isoform (Homo sapiens, UniProt P48736)
Sequence (P48736 whole entry, canonical isoform): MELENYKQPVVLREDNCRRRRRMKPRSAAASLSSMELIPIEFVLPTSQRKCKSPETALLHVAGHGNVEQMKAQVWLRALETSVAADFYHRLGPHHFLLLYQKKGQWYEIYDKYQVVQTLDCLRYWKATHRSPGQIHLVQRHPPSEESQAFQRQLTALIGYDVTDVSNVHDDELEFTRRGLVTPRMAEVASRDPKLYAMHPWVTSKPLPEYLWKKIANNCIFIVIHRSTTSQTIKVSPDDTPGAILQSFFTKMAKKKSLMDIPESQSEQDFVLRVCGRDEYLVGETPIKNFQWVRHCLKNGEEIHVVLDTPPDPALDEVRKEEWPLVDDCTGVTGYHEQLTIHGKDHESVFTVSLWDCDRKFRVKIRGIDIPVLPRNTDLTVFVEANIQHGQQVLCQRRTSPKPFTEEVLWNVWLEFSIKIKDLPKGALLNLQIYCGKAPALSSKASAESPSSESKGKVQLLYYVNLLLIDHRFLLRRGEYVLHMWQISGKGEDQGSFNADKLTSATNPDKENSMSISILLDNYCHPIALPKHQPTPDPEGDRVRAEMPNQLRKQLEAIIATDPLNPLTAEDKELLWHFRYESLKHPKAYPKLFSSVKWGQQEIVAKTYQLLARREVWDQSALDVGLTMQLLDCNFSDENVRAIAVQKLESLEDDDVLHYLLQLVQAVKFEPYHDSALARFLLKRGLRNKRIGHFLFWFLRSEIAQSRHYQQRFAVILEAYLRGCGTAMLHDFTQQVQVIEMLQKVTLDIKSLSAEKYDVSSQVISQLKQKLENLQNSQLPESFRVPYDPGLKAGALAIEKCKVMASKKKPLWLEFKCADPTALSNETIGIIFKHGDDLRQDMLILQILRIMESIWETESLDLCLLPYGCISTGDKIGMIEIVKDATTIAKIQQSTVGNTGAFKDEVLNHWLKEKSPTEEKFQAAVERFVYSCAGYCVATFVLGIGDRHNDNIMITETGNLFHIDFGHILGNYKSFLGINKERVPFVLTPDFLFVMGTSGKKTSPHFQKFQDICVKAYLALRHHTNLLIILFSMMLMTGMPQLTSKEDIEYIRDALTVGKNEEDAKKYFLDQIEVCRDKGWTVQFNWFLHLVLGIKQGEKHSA
Experiment: biochemical
ATTRIBUTE MEASURED: Ki (µM)

Past entries and their recorded results:
Cc1nc(-c2cccnc2Nc2cccc3[nH]ccc23)c2[nH]cnc2n1 0.023
COc1ccc(Nc2ncc(CN3CCN(C)CC3)cc2-c2nc(C)nc(N)n2)cn1 0.13
COc1ccc(Nc2ncccc2-c2ncnc3nc[nH]c23)cn1 1.1
COCc1cnc(Nc2ccc(OC)nc2)c(-c2nc(C)nc(N)n2)c1 0.009
COc1ccc(Nc2nccnc2-c2nc(C)nc(N)n2)cn1 0.09

I = COc1ccc(Nc2ncc(CN3CCCN(S(C)(=O)=O)CC3)cc2-c2nc(C)nc(N)n2)cn1
II = COc1ccc(Nc2ncc(CN3CCNCC3)cc2-c2nc(C)nc(N)n2)cn1
III = COc1ccc(Nc2ncc(CN3CC[C@@H](CO)C3)cc2-c2nc(C)nc(N)n2)cn1
IV = COc1ccc(Nc2ncc(CN3CCS(=O)(=O)CC3)cc2-c2nc(C)nc(N)n2)cn1
V = COc1ccc(Nc2ncc(CN3CCOCC3)cc2-c2nc(C)nc(N)n2)cn1
Number of compounds to sort: 5. Sort criterion: Ki, ascending. Reply with the labels, ordered as the question asks.
V, IV, I, III, II
(V: 0.017 µM, IV: 0.03 µM, I: 0.046 µM, III: 0.1 µM, II: 0.2 µM)

###

Target: Phosphatidylinositol 4,5-bisphosphate 3-kinase catalytic subunit delta isoform (Homo sapiens, UniProt O00329)
Sequence (O00329 whole entry): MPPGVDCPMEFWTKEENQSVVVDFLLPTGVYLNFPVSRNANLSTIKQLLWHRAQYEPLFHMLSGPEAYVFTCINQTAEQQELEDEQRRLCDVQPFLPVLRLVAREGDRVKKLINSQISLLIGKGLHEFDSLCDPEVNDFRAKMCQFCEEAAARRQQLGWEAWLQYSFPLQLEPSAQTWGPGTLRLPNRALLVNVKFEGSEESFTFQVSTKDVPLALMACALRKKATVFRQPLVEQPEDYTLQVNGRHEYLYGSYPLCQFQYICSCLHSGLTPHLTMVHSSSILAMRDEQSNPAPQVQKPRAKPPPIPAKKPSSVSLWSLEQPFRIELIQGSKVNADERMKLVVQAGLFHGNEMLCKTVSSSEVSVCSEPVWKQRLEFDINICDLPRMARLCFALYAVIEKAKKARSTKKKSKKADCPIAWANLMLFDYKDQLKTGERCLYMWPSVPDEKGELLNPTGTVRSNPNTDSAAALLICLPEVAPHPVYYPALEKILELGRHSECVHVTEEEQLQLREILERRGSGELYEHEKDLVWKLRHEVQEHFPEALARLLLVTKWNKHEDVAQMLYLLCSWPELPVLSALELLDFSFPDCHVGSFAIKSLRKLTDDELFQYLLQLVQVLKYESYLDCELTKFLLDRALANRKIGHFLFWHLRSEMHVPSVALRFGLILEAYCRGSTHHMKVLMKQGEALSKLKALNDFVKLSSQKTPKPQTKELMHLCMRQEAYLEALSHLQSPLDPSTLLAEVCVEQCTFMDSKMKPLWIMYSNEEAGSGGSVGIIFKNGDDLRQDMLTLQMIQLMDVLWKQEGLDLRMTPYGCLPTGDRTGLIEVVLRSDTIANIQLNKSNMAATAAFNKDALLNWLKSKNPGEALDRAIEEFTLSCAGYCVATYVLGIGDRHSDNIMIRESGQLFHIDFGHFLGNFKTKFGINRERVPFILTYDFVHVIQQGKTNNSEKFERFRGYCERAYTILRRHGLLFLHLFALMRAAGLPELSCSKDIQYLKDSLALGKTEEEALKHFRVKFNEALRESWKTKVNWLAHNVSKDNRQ
Test: biochemical
ATTRIBUTE MEASURED: Ki (nM)

COMPOUND	QUANTITATIVE READOUT
COc1ccc(Nc2ncc(C3=CCOCC3)cc2-c2nc(C)nc(N)n2)cn1	2
COCc1cnc(Nc2ccc(OC)nc2)c(-c2nc(C)nc(N)n2)c1	10
COc1ccc(Nc2ncc(CN3CCCC3)cc2-c2nc(C)nc(N)n2)cn1	60
COCCNCc1cnc(Nc2ccc(OC)nc2)c(-c2nc(C)nc(N)n2)c1	30
COc1ccc(Nc2ncc(Cc3ccc(S(C)(=O)=O)cc3)cc2-c2nc(C)nc(N)n2)cn1	1

P = Cc1cc(-c2cccnc2Nc2cccc(O)c2)nc(N)n1
Q = COc1ccc(Nc2ncc(Cc3ccccc3)cc2-c2nc(C)nc(N)n2)cn1
R = COc1ccc(Nc2ncc(N3CCOCC3)cc2-c2nc(C)nc(N)n2)cn1
Order the records so the highest Ki appears first and the lowest last. Reply with the labels, ordered as the question asks.
P, Q, R

A = COc1ccc(Nc2ncccc2-c2ncnc3nc[nH]c23)cn1
B = COC(=O)N1CCN(Cc2cnc(Nc3ccc(OC)nc3)c(-c3nc(C)nc(N)n3)c2)CC1
Could you please tell me which of these two has the higher Ki: A or B ? Respond with the label that goes with your answer.
A
(A: 5700 nM, B: 6 nM)

###

Target: Phosphatidylinositol 4,5-bisphosphate 3-kinase catalytic subunit gamma isoform (Homo sapiens, UniProt P48736)
Experiment: biochemical
ATTRIBUTE MEASURED: Ki (nM)

Past entries and their recorded results:
COMPOUND	DISPLAY UNIT	Ki
COc1ccc(Nc2ncc(CN3CCCC3)cc2-c2nc(C)nc(N)n2)cn1	nM	210
Nc1cc(-c2cccnc2Nc2cccc3[nH]ncc23)nc(C(F)(F)F)n1	nM	3600
Cc1nc(N)c(F)c(-c2cccnc2Nc2cccc3[nH]ncc23)n1	nM	330
COc1ccc(Nc2ncc(CN3CCN(S(=O)(=O)N(C)C)CC3)cc2-c2nc(C)nc(N)n2)cn1	nM	9
Cc1nc(N)nc(-c2cccnc2Nc2cccc3[nH]ncc23)n1	nM	88
Cc1nc(N)nc(-c2cccnc2Nc2cccc3[nH]ccc23)n1	nM	45

P = Cc1nc(N)cc(-c2cccnc2Nc2cccc3[nH]ncc23)n1
Q = COc1ccc(Nc2ncc(Cl)cc2-c2nc(C)nc(N)n2)cn1
R = COc1ccc(Nc2ncc(CN3CCC(S(C)(=O)=O)C3)cc2-c2nc(C)nc(N)n2)cn1 (racemic)
S = COc1ccc(Nc2ncncc2-c2nc(C)nc(N)n2)cn1
Order the records so the highest Ki appears first and the lowest last. Reply with the labels, ordered as the question asks.
P, S, Q, R
(P: 91 nM, S: 59 nM, Q: 40 nM, R: 5 nM)

###

Target: Phosphatidylinositol 4,5-bisphosphate 3-kinase catalytic subunit delta isoform (Homo sapiens)
Sequence (O00329 whole entry): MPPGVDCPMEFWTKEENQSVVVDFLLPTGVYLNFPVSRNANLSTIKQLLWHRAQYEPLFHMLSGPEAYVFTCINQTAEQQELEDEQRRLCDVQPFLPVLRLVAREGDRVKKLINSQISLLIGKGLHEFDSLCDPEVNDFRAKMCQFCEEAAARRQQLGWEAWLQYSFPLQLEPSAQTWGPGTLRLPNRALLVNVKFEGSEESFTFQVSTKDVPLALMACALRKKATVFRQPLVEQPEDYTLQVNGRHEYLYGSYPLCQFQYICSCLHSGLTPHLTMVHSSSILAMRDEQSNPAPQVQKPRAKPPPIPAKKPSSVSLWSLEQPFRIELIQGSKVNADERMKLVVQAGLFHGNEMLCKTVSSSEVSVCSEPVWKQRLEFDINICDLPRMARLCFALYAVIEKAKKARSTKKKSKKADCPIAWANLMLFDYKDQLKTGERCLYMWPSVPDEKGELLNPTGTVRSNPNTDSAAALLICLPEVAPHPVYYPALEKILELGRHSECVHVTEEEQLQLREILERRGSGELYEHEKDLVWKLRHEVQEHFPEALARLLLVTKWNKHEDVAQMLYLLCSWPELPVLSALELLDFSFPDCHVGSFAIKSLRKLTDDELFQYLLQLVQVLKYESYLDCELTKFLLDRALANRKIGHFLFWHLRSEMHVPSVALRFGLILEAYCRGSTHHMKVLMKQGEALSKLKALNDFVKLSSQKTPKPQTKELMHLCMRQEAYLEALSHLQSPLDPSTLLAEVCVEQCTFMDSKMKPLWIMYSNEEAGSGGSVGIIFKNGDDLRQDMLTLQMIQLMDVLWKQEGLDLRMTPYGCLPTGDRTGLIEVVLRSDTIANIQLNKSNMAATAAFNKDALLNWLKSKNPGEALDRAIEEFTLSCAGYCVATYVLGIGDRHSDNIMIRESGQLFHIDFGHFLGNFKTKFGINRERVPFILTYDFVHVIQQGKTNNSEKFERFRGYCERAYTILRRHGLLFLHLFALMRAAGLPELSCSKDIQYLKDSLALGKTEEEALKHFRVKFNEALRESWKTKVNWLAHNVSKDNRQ
Assay: biochemical
pKi: −log10 of the molar value.
ATTRIBUTE MEASURED: pKi

Cc1nc(N)cc(-c2cccnc2Nc2cccc3[nH]ncc23)n1 6.43

1 = COc1ccc(Nc2ncc(Cl)cc2-c2nc(C)nc(N)n2)cn1
2 = Cc1nc(-c2cccnc2Nc2cccc3[nH]ccc23)c2[nH]cnc2n1
3 = COc1ccc(Nc2ncc(N3CCN(C)CC3)cc2-c2nc(C)nc(N)n2)cn1
4 = COc1ccc(Nc2ncc(C)cc2-c2nc(C)nc(N)n2)cn1
Number of molecules to sort: 4. Sort criterion: pKi, ascending. Reply with the labels, ordered as the question asks.
2, 4, 1, 3
(2: 6.44, 4: 6.96, 1: 7.41, 3: 7.80)
